Test system: MOLT-4 leukemia
run description: NCI-60 one-dose screen, 48 h (100 = growth as untreated, 0 = no growth, -100 = all killed)
condition: 10 µM
This is part of a sample that, as a whole, favours compounds with a hit. Of some 83,000 tested, about 20% had one in any assay.
List of growth values.
Field: numeric (%). Do not append units.

COc1ccc(-c2nn(-c3cccc(NC(=O)Nc4ccc(Cl)c(C(F)(F)F)c4)c3)cc2-c2ccncc2)cc1Cl	-6.09
COc1ccc(N2C(=O)C3c4[nH]c5ccc(OCc6ccccc6)cc5c4C4CCC(C(C)C)CC4C3C2=O)cc1 (stereo not given)	30.8
CCCCCCc1cc(N=Nc2ccc(S(=O)(=O)Nc3cc(C)nc(C)n3)cc2)c(O)cc1O	88.7
COc1cc(CNc2ccccc2C(=O)N2CCN(C(=O)c3cc(-c4cc(OC)c(OC)c(OC)c4)n4nc(-c5ccccc5)cc4n3)CC2)cc(OC)c1OC	68
O=C(Nc1ccc(OS(=O)(=O)c2ccccc2)cc1)C12CC3CC(CC(C3)C1)C2	39.5

input: Report growth, nothing else, for this compound: COc1ccc2c(c1)O/C(=C\c1ncc([N+](=O)[O-])n1C)C2=O
output: 2.86

input: For the compound Cn1c(N)c(N=Nc2ccc(S(=O)(=O)Nc3nccs3)cc2)c(=O)n(C)c1=O , give its measured growth value.
output: 92.6

input: Quick one: give measured growth for COc1ccc(-c2csc(NC(=O)CSc3nc(C)c(-c4ccccc4)n3Nc3ccccc3)n2)cc1
output: 31.1

input: Name the recorded growth of the item CN(C)c1ccc(Cc2ccc(N(C)C)cc2Cl)c(Cl)c1 in your answer.
output: 46

input: For the compound O=C1NC(=O)N(Cc2ccccc2)CC1Br (stereo not given) , give its measured growth value.
output: 57.7

input: Identify measured growth associated with O=C(O)c1ccc(P(=O)(O)O)c([N+](=O)[O-])c1
output: 111

input: State its growth for this compound: CCCC1(CC(=O)O)OCCc2c1[nH]c1ccccc21 (stereo not given)
output: 87.3

input: Please indicate growth recorded for N#CCCN1C/C(=C/c2ccc(Cl)cc2)C(=O)/C(=C/c2ccc(Cl)cc2)C1
output: -11.7

input: Let me know recorded growth for N=c1nc(N)ncn1-c1ccccc1 , thanks.
output: 109

----------
Tested on: K-562 leukemia
run description: NCI-60 one-dose screen, 48 h
condition: 10 µM
Method: Cells are grown in 96 well plates and exposed to the test compound for 48 hours. Compounds are tested at a single concentration, which is 10^-5 M for most compounds. The reported endpoint is percent growth (GI% or GIPRCNT), where numbers from 0 - 100% represent growth inhibition, and numbers from -100% - 0 represent cell death. For example, a value of 40 represents 60% growth inhibition. A value of 0 means no net growth occurred over the course of the experiment. […]
Compounds without any hit were thinned out: in the full panel of roughly 83,000, 20% have a hit. Active and inactive are the calls of the source. How the source made its calls: active means growth percent below 10; inactive means the rest.
Choose the fitting class; nothing outside true = active, false = inactive is accepted.

COc1cc(CNc2ccccc2C(=O)N2CCN(C(=O)c3cc(-c4cc(OC)c(OC)c(OC)c4)n4nc(-c5ccccc5)cc4n3)CC2)cc(OC)c1OC	false
COc1cccc(Cn2c(-c3nonc3N)nc3ccccc32)c1	true
C#Cc1ccc(-n2c(/C=C/c3ccc(O)c(OC)c3)nc3ncccc3c2=O)cc1	false

Next up:
input: Kindly provide the recorded test outcome for the following compound: COc1ccc(-c2nsc3c2NC(=O)CC3c2ccc(F)cc2)cc1 (centres undefined)
output: false
